- test_description: qHTS assay for MDR1-selective chemotherapeutics: Primary screen using the drug-selected MDR subline cells KB-V1; note: nearly all actives have a fitted effect of over 60% in size
- assay_context: KB-V1 MDR cells viability, CellTiter-Glo, 72 h; series mostly up to 46.1 µM
Screen size: about 400,000 compounds; about 13,000 (3.2%) were called active. Another 18% or so got no clear call; they are omitted. Calls come from the whole dose curve; as a rule, active = well fitted cell-killing curve with a large enough effect; inconclusive = small, poorly fitted or top-dose-only effect, or effect the other way; inactive = flat fitted curve, though single readings scatter. For the sample, actives were picked, then their nearest neighbours and some compounds at random.
Form entry, call: pick from active, inactive

COC(=O)c1c(NC(=O)c2ccc(Cl)c(Cl)c2)sc2c1CCCC2 = inactive
COC(=O)c1c(NC(=O)CSc2nncs2)sc2c1CCCCC2 = active
CSc1ccc(CN2CCC2(C)C(=O)NCc2ccccc2Br)cc1 (stereo not given) = inactive
CCOC(=O)c1c(NC(=O)CSc2nnc(CN3CCOCC3)n2C)sc2c1CCCC2 = active

query: Name the outcome recorded for COC(=O)c1c(NC(=O)C2CC(C)=C(C)CC2C(=O)O)sc2c1CCCCC2 (stereo not given) in the assay.
result: inactive

query: Please indicate how the test categorized CCOC(=O)C1CCC(CN(Cc2ccc(OC)cc2)S(=O)(=O)c2ccc(F)c(C(=O)Nc3cc(C)ccc3C)c2)CC1 (stereo not given) .
result: inactive

query: I would be grateful if you could indicate the recorded call for O=C(Nc1cccc(Cl)c1)c1cc([N+](=O)[O-])ccc1N1CCN(CCO)CC1 .
result: inactive

query: Which result was noted for this molecule in the test: CC1CCN(c2ccc([N+](=O)[O-])cc2C(N)=O)CC1
result: inactive

query: Which outcome was entered for the molecule OC(c1ccc(F)cc1)c1ncc(-c2cccc(C(F)(F)F)c2)[nH]1 (stereo not given) in this test?
result: inactive

query: GET /call?item= Cc1cccc(C(=O)C(O)(c2ccccc2)C2CCCCC2=O)c1 (stereo not given) returns the recorded outcome of this test.
result: inactive
